- Test system: RXF 393
- assay_procedure: NCI tumour cell line growth inhibition, 48 h
Activity calls are given as the source filed them. No stated cut-off is given here; in the data, active = GI50 up to about 1.1 µM and inactive = higher.
The following molecules are listed with their measured GI50 values.

Some entries whose results are on file:
Task: # input molecule: C=C1C(O)CC[C@]2(C)C1C1OC(C)(C)O[C@]13CC(=O)C(C)=C([C@H]1OC(C)(C)OC12)C3(C)C (some centres undefined) ; wanted: its GI50
Output: 27.4 µM (inactive)

Task: # input molecule: "CCCCC(C(=O)N/N=C/c1ccc([N+](=O)[O-])o1)C(=O)N/N=C/c1ccc([N+](=O)[O-])o1" ; wanted: its GI50
Output: 2.07 µM (inactive)

Task: # input molecule: O=C(c1ccccc1)[C@H]1Nc2cnccc2C2c3ccccc3CC21 (some centres undefined) ; wanted: its GI50
Output: 14.8 µM (inactive)

Task: # input molecule: "CCCCn1c(-c2ccc([N+](=O)[O-])cc2)cs/c1=N/N=C1\C(=O)Nc2ccc(Br)cc21" ; wanted: its GI50
Output: 8 µM (inactive)

Task: # input molecule: "CN(C)c1ccc(/C=C2\N=C(c3ccccc3)N(c3nc4ccc(Sc5ccccc5)cc4[nH]3)C2=O)cc1" ; wanted: its GI50
Output: 50.2 µM (inactive)

With those in mind, consider the next molecule.
Task: # input molecule: "C[N+]1(C)C/C(=C/c2ccc(F)cc2)C(=O)/C(=C\c2ccc(F)cc2)C1" ; wanted: its GI50
Output: > 100 µM (inactive)

----------
- System: NCI-H226
- assay_procedure: NCI tumour cell line growth inhibition, 48 h
Calls of active or inactive are those of the source. No stated cut-off is given here; in the data, active = GI50 up to about 1.1 µM and inactive = higher.
The following molecules are listed with their measured GI50 values.

Some entries whose results are on file:
Task: # input molecule: "COc1ccc(/C=C/COC(C)=O)cc1OC" ; wanted: its GI50
Output: > 100 µM (inactive)

Task: # input molecule: CCCCCC1=C2C(c3ccc(OC)cc3)=C(N)C(c3ccc(OC)cc3)=C3NC(=O)C(C=C1)C32 (stereo unspecified) ; wanted: its GI50
Output: 21.9 µM (inactive)

Task: # input molecule: "Cn1c(=O)sc2cc(C(=S)N3CCOCC3)ccc21" ; wanted: its GI50
Output: > 46.9 µM (inactive)

Task: # input molecule: "COc1ccccc1NC(=S)Nc1cccc(C)n1" ; wanted: its GI50
Output: 36.9 µM (inactive)

Task: # input molecule: "CC(=O)N(O)[C@@H]1CC[C@H](n2cnc3c(N)ncnc32)C1" ; wanted: its GI50
Output: > 100 µM (inactive)

Task: # input molecule: CN(C)CCCOC(=O)C(O)(Cc1ccccc1)C1CC1 (stereo unspecified) ; wanted: its GI50
Output: > 100 µM (inactive)

Others:
Task: # input molecule: COc1ccc(N2C(=O)C3c4[nH]c5ccccc5c4C4CCC(C(C)(C)C)CC4C3C2=O)c(C)c1 (stereo unspecified) ; wanted: its GI50
Output: > 100 µM (inactive)

Task: # input molecule: "Cc1ccc(C(=O)CC2=Nc3nnc(CCCCCCCc4nnc5n4C(=O)C(CC(=O)c4ccc(C)cc4)=N5)n3C2=O)cc1" ; wanted: its GI50
Output: > 100 µM (inactive)

Task: # input molecule: CC(C)=CCCC1(C)C=Cc2c(c(C)cc3c2[nH]c2cc(O)ccc23)O1 (stereo unspecified) ; wanted: its GI50
Output: > 25 µM (inactive)
